protocolText: solvent given as SMILES
conditionsUsed: in c1cc(-n2c3ccccc3c3ccccc32)cc(-n2c3ccccc3c3ccccc32)c1
emission maximum less than 500 nm is 1.0; emission maximum greater than or equal to 500 nm is 0.0.

Request: For this molecule, is emission maximum lower than 500 nm? O=c1c2ccccc2n2c3ccccc3c(=O)c3cc(-c4ccccc4)cc1c32
Result: 1.0

Request: For this molecule, is emission maximum lower than 500 nm? O=C(c1ccccc1)c1cc2ccc1CCc1ccc(cc1-c1ccc(N(c3ccccc3)c3ccccc3)cc1)CC2
Result: 1.0

Request: For this molecule, is emission maximum lower than 500 nm? c1ccc(-c2nnc(-c3ccc(N4c5ccccc5N(c5ccccc5)c5ccccc54)cc3)n2-c2ccccc2)cc1
Result: 0.0

Request: For this molecule, is emission maximum lower than 500 nm? O=C(c1ccc(N2c3ccccc3Oc3ccccc32)cc1)c1ccc(N2c3ccccc3Oc3ccccc32)cc1
Result: 0.0

Request: For this molecule, is emission maximum lower than 500 nm? COc1ccc(-c2ccc3c(c2)c2cc(-c4ccc(OC)cc4)ccc2n3-c2ccc(C(=O)c3ccc4sc5ccccc5c4c3)cn2)cc1
Result: 1.0
